ASSAY_NAME: Metabolic stability of the compound in iv dosed Sprague-Dawley rat brain assessed as parent compound remaining measured after 30 mins by radio-HPLC analysis
Type: ADME, organism-based
CONDITION_PARAMETERS: read-out: Stability
OBSERVED_PROPERTY: remaining at 0.5 h (%)
Give bare numbers, in %.

{"CHEM_SMILES": "O=C(c1ccc2c(ccn2-c2ccc([18F])cc2)c1)N1CC(N2CCN(C(=O)c3nccs3)CC2)C1", "UNIT_ABBREV": "%", "remaining at 0.5 h": 97}

# evaluate next
Query: So what's the measured remaining at 0.5 h for this one? `O=C(c1ccc2c(ccn2-c2ccc([18F])cc2)c1)N1CC(N2CCN(c3ncccn3)CC2)C1`
Result: 95
